B1: POU domain, class 2, transcription factor 1, residues 285 to 354; numbered along this chain, P14859 (parent)
chain: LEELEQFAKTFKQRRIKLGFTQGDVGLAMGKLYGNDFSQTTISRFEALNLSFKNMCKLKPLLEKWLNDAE

Variants of: B1
TEST_PROTOCOL: abundance fitness (aPCA) (normalised: wild type 0, dead -1); higher = more abundant; growth selection in yeast, the domain comes from the species named
RUN_CONDITIONS: Homo sapiens
Would you please tag the item 1.0 when its abundance fitness is -0.1 or above, and 0.0 when it is below?

{"columns": ["CONSTRUCT_SEQUENCE", "CLASS"],
 "data": [
  ["LECLEQFAKTFKQRRIKLGFTQGDVGLAMGKLYGNDFSQTTISRFEALNLSFKNMCKLKPLLEKWLNDAE [E3C]", 0.0],
  ["LEELRQFAKTFKQRRIKLGFTQGDVGLAMGKLYGNDFSQTTISRFEALNLSFKNMCKLKPLLEKWLNDAE [E5R]", 1.0],
  ["LEELEQFAKTFKQRRIKLGFTQGDVGLAYGKLYGNDFSQTTISRFEALNLSFKNMCKLKPLLEKWLNDAE [M29Y]", 0.0],
  ["LEELEIFAKTFKQRRIKLGFTQGDVGLAMGKLYGNDFSQTTISRFEALNLSFKNMCKLKPLLEKWLNDAE [Q6I]", 1.0],
  ["LEELEQFAKTFKQRRIKLGFTQGDVGLAMGKLYGNDFSQTTISRFEALNLSFKNMCKLKPQLEKWLNDAE [L61Q]", 1.0],
  ["LEELEQFAKTFMQRRIKLGFTQGDVGLAMGKLYGNDFSQTTISRFEALNLSFKNMCKLKPLLEKWLNDAE [K12M]", 1.0],
  ["LEELEQFAKPFKQRRIKLGFTQGDVGLAMGKLYGNDFSQTTISRFEALNLSFKNMCKLKPLLEKWLNDAE [T10P]", 0.0],
  ["LEELEQFAKTFKQRRIKLGFTQGDVGLAMKKLYGNDFSQTTISRFEALNLSFKNMCKLKPLLEKWLNDAE [G30K]", 1.0],
  ["LEELEQFAKTFKQRRIKLGFTQGDVGLAMGKLYGNDFSQTTISRFEALNLSFKNMCKLKPLLEEWLNDAE [K64E]", 1.0],
  ["LEELEQFAKTFKQRRIKLGFTQGDVGLAMGKLYGNDFSQTTISRFEALNLSFKNMCKLDPLLEKWLNDAE [K59D]", 0.0],
  ["LEELEQFAKTFKQRRIKLGFTQGHVGLAMGKLYGNDFSQTTISRFEALNLSFKNMCKLKPLLEKWLNDAE [D24H]", 1.0],
  ["LEELEQFAKTFKQRRIKLGFTQGDVGLAMGKLYGNDFSQTTISRFEALNLSFKNMCKLKPLLEKWLNDAI [E70I]", 1.0],
  ["LEELEQFAKTFKQRRIKLGFTQGDVGLAMGKLYGNDFSQTTISRFEALNLSFKNMCKLKPLLEKWLSDAE [N67S]", 1.0],
  ["LEELEQFAKTFKQRRIKLGFTQGDVGEAMGKLYGNDFSQTTISRFEALNLSFKNMCKLKPLLEKWLNDAE [L27E]", 1.0],
  ["LEELEQFAKTFKQRRIKLGFTQGDVGLAMGKLYGNDFSQTNISRFEALNLSFKNMCKLKPLLEKWLNDAE [T41N]", 1.0],
  ["LEELEQFAKTFKQRRIKLGFTQGDVGRAMGKLYGNDFSQTTISRFEALNLSFKNMCKLKPLLEKWLNDAE [L27R]", 1.0],
  ["LEELEQFAKTFKQRRIKLGFTQGDVGLAMGKLYGNDFSQTTISRFEALNLSFKNMCKLKPLLEKNLNDAE [W65N]", 0.0],
  ["LEELEQFAKTFKQRRIKLGFTQGDVGLAMGKLYGNDFSQTTIDRFEALNLSFKNMCKLKPLLEKWLNDAE [S43D]", 0.0]
]}
